- Measured target: recombinant BFL-1/A1ΔC (UniProt Q16548)
- Sequence (Q16548 1-153, stated change not applied): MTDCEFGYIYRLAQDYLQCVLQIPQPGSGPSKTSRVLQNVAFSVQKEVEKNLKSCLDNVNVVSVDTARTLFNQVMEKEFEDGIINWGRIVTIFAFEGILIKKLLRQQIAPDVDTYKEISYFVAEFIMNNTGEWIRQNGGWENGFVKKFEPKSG
- Test details: fluorescence polarization (FPA), FITC-SAHB with recombinant anti-apoptotic protein [upper table]
Bridges are numbered along the chain shown (N, C = ends). Where no end group is shown, it is not given here. [ ]: non-standard residue; d: D form. The star is where a group is joined. FITC = O=C1OC2(c3ccc(O)cc3Oc3cc(O)ccc32)c2ccc(NC(=S)*)cc21; S5 = C=CCCC[C@](C)(N)C(=O)O; Nle = CCCC[C@H](N)C(=O)O
Metric name: Kd

// Kd value for {FITC}-RLAEVSAVLL[S5]LGD[S5]LE[Nle]IR (staple 11-15) [BOK SAHB] : > 1000 nM
